Values were extracted from the EternaBench riboswitch data.

- System: MS2 coat protein
- assay-text: apparent Kd, MS2 coat protein; higher = weaker binding; RNA-MaP array; FMN 200 µM where present
- condition-description: ligand present: flavin mononucleotide; designed as: OFF switch for flavin mononucleotide

seq: UACUUGUUAGGAUAUCUUACAUUUGCAUCAUAGCAACCAUUGGAGAAGGGACAUGAGGAUCACCCAUGUUUGGU
apparent Kd, nM: 43.8

seq: AUGAGUAAAGCAGGAUAUCUAUUGUCUCUGUAACAUGAGGAUCACCCAUGUAGAGAAGGGCUAAGUCUUACUCUUCGGAGUUGA
apparent Kd, nM: 13.7

seq: UUACUUUUACAGAAGGUUUAAUAAUAUAUAAAAGAAGGAUAUGUAACAUGAGGAUCACCCAUGUUUCACCCACAUGAGGAUCAU
apparent Kd, nM: 9.79

seq: GCACUGCGAGGAUAUACAUGAGGAUCACCCAUGUGUCGGCAGCGAUGCCAGUACAAAUGUAGAAGGCGCGUAAA
apparent Kd, nM: 114

seq: GGUUGUCAUAGUCAUCCUUUCCGUACAUGAGGAUCACCCAUGUAGGAUAUGCUACUCAAAGAGUAGCAGAAGGGCGUGUGUCUU
apparent Kd, nM: 18.8

seq: CUUUUGUGAGGAUAUCAUUAGUAAAUAAAUAAAAUUACUACUGAGAAGGCACAUGAGGAUCACCCAUGUUCCUC
apparent Kd, nM: 159

seq: GAAUUAUUGAUCCAAUUUUACAACAUGAGGAUCACCCAUGUGCAGGAUAUCGUGUGUUUUAUAUUCGAGAAGGGCAUGAACUUU
apparent Kd, nM: 495

###

- System: MS2 coat protein
- assay-text: apparent Kd, MS2 coat protein; higher = weaker binding; RNA-MaP array; tryptophan 2.4 mM where present
- condition-description: ligand present: tryptophan; designed as: ON switch for tryptophan
In this scheme, each record receives a class according to its apparent Kd; the ranges are lo: < 0.02 µM; mid: ≥ 0.02 µM and < 0.2 µM; hi: ≥ 0.2 µM

seq: GGGUACAUCGCGGCCGCCACUUAUGUAAAUACAUGAGGAUCACCCAUGUCGAUGGAGACAUCGGAGAGGACCGGGUGAUGUACCG
class-assignment: mid
--
seq: GACGCAUGAGUUGGAACAGCUCAUGGGUCGCGAGGACCGGUACGGCCGCCACUCGGCUGUACAUGAGGAUCACCCAUGUCAGGGU
class-assignment: hi
--
seq: CUAAUUAUAUCGGCCGCCACUUACUCAUGAGGUAACAACAUGAGGAUCACCCAUGUUUGAGGAUCAAGGACCGGGAUAUAAUUAG
class-assignment: lo
--
seq: GCAUCCUAGUCGGCCGCCACUGCAAUUGUAGUACUGCUACAUGAACAUGAGGAUCACCCAUGUAGCAGGACCGGGACUAGGAUGC
class-assignment: lo
--
seq: AAACAUGAGGAUCACCCAUGUUGAGGAUCACGAGGACCGGUACGGCCGCCACUCGACAUGAGGAUCACCCAUGUGAGGAUCACCC
class-assignment: mid
--
seq: CAGGCUAGGACGGCCGCCACUGUGGCUACGGUACAUGAGGAUCACCCAUGUUUGUGGUUGAUCUACAGGACCGGGUCCUGACACG
class-assignment: hi
--
seq: UUACCGUAAGGUAUACCGGUCCACAAUAAUCGAGGACCGGUACGGCCGCCACUCGAUGUGUGAUCACAUGAGGAUCACCCAUGUA
class-assignment: hi
--
seq: AUGCAGAACACGGCCGCCACUCAUUGUAGACAUGAGGAUCACCCAUGUAAUAGGGAUAUUUUAUUGAGGACCGGGUGUAAUGCAA
class-assignment: mid
--
seq: UAACAUGAGGAUCACCCAUGUUUGAAGAAACGAGGACCGGUACGGCCGCCACUCGACGAGUGGAUGAAUAGUGGGCUUGUGUGCU
class-assignment: lo
--
seq: UGGUACUAGGCGGCCGCCACUGGGUGAUACAUGAGGAUCACCCAUGUUUAAUGCCGAGAGGCAACUAGGACCGGGCCUAGUACAU
class-assignment: hi
--
seq: GGUUACUCUACGGCCGCCACUGAUUAAUUAUAAACCUGUACAUAAACAUGAGGAUCACCCAUGUACAGGACCGGGUAGUGUAACC
class-assignment: mid
--
seq: AGCAACUAGUCGGCCGCCACUCAUAUUACAUGAGGAUCACCCAUGUAUACAUGGUUGUUAUAUUUGAGGACCGGGACAGUUGCAU
class-assignment: mid
--
seq: GCGGAAUAAUCGGCCGCCACUAUGAUAUAGGAAACUAUAACAUGAGGAUCACCCAUGUAUCCUCAUAGGACCGGGAUUAAAACGC
class-assignment: mid
--
seq: CGCCACUCGAGUGAUCCUCACGAGUGGCUACGAGGACCGGUACGGCCGCCACUCGAAUUAACAUGAGGAUCACCCAUGUACUCCA
class-assignment: lo

###

- Tested on: MS2 coat protein
- assay-text: apparent Kd, MS2 coat protein; higher = weaker binding; RNA-MaP array
- condition-description: ligand present: flavin mononucleotide; designed as: ON switch for flavin mononucleotide
Outcome: Criterion met for apparent Kd of at least 0.02 µM; Criterion not met for anything lower.

seq: AAUGAGGCCUCUCAACAUGAGGAUCACCCAUGUAACGGAACAAAGGAUAUGGUCCAACUACUAACCCAGAAGGUUGUGACAGAA
measured-target: MS2 coat protein
class-assignment: Criterion met

seq: UUGGUUGCAUAGAAGGUGAGAUAGGAUCUACAUGAGGAUCACCCAUGUGUUAUCCCAAUUAGAAUCAAGGAUAUAUUGGCUUAU
measured-target: MS2 coat protein
class-assignment: Criterion not met

seq: CUCUAAUAAUAUUUCAACAUGAGGAUCACCCAUGUAAUCAGCAAGGAUAUGGUCUUGAUAAGAACCCAGAAGGUGCAUAUAGAU
measured-target: MS2 coat protein
class-assignment: Criterion not met

seq: AAAUGUACGAAGAAGGCUCUGCCACUGGCCGAGAGAGGAUAUUCACACAUGAGGAUCACCCAUGUCGAACAAAGUACACAGAGC
measured-target: MS2 coat protein
class-assignment: Criterion not met

seq: CGACUAACGUGAGGAUAUAGUCCGGAAAGACAUUUUCGUCAAGACAUGAGGAUCACCCAUGUCCUCUAGAAGGCACUCGGAACA
measured-target: MS2 coat protein
class-assignment: Criterion met

seq: AUGGGUACCACAGGAUAUUAGUAACACAUGAGGAUCACCCAUGUUUUACCGCUUGAAGCUUAGACUAAGAAGGGUGGCUUAGAA
measured-target: MS2 coat protein
class-assignment: Criterion met

seq: CGAGAAUAUACAGGAUAUGGCGGAACCCAUUACAUGAGGAUCACCCAUGUACCAUGGAAAAGAGUCCAGAAGGGUAGAAUCAAA
measured-target: MS2 coat protein
class-assignment: Criterion not met

###

- System: MS2 coat protein
- assay-text: apparent Kd, MS2 coat protein; higher = weaker binding; RNA-MaP array; FMN 200 µM where present
- condition-description: designed as: OFF switch for flavin mononucleotide; no ligand
Catalogue of sequences with associated apparent Kd

seq: GGUGCGUUUGUGAGGAUAUGCUGGUCCUUGGAUCAGCAGAAGGCACAUGAGGAUCACCCAUGUGGUGUCGGUCC
apparent Kd / nM: 416
--
seq: GUAUAUAGUGUGAGGAUAUGCUGGUCCUUGGAUCAGCAGAAGGCACAUGAGGAUCACCCAUGUAGUUUAUUAUU
apparent Kd / nM: 25
--
seq: UAGAAGUCAGGAUAUCCAUGGCGGCACUUGCGUGGUGGCGUGGAGAAGGGACAUGAGGAUCACCCAUGUAAAGG
apparent Kd / nM: 148
--
seq: GUCAGGUGAGGAUAUACGCGGCUGACGAAACGUUAUACCGAGUAGAAGGCACAUGAGGAUCACCCAUGUUCGGG
apparent Kd / nM: 109
--
seq: UAAGAGCGAGGAUAUACGUCGCUGGUCCGGAUGGACGCAUGACAUGAGGAUCACCCAUGUAGAAGGCGCAAAAC
apparent Kd / nM: 22.9
--
seq: GGUGCGUAUGUGAGGAUAUGCUGGUCCUUGGCUCGGCAGAAGGCACAUGAGGAUCACCCAUGUGGUGUCGUGCC
apparent Kd / nM: 16.9
--
seq: GGAUCGCAAGAAGAUCCAAUACGAACAUGAGGAUCACCCAUGUAGGAUAUGCUAGAAGAAGAGUAGCAGAAGGACAUGUGCCUU
apparent Kd / nM: 9.79
--
seq: CAGCGAAAGCUGAAUCUGUAGAGAGAGGAUAUACAAGAUAUCAUCCAUACAUGAGGAUCACCCAUGUAGAAGGCUCUCUACAGU
apparent Kd / nM: 5.03
--
seq: AGAAACUACGAGAAGGACAUGUGGUCCUUCAGUUACAUGAGGAUCACCCAUGUAGGAUAUCGUAGUUUCAGGAUCGUGAGAUCC
apparent Kd / nM: 42
--
seq: UAUGAGCGAGGAUAUGCUUGGGACGUCGUUCUUGCGGCGAGACAUGAGGAUCACCCAUGUAGAAGGCGCGAGCG
apparent Kd / nM: 18.4
--
seq: UACUAAAAGGAGGAUAUCGUAUCGGAGACGAUACGAGAAGGCUUAACAUGAGGAUCACCCAUGUUCUUCAAUAU
apparent Kd / nM: 15.8
--
seq: GACUGCAUGUAAGGAUAUCGACUGGAUAACAGUCGAGAAGGUACAUGAGGAUCACCCAUGUAAUAAGAUCAAUAAUAAGCAGUC
apparent Kd / nM: 14.4
--
seq: GAUCAACAUGAGGAUCACCCAUGUGAGGAUAUGAUACUAUGUACUUCGGUACAUAGUAUCAGAAGGCAUGUAAA
apparent Kd / nM: 50.1
--
seq: UCGUUUGUACUAGGAUAUACCGACGAAAGAUCAGUAGAAGGAGUAACAGACAUGAGGAUCACCCAUGUAUGGGUCCUUAAACAA
apparent Kd / nM: 35.8
--
seq: ACGAGGGUUACAGGAUAUGAAGCUAAAACGGCGUUAGAAGGGUAUACAGAGUUACAUGAGGAUCACCCAUGUUGUGACUUCGAA
apparent Kd / nM: 33.6
